The reported measurements were obtained from patent US20090155164A1.

molecular target: T1, monomeric human c-fms (residues 1-512)-pHis (human, UniProt P07333 20-512); assay: Biacore, low resolution; hybridoma mAb captured on anti-human IgG, monomeric c-fms-pHis analyte at 125 nM
T1 construct: Construct stated as residues 1-512; signal stated as amino acids 1-19 and left out; also called human c-fms (1-512).pHIS; monomeric c-fms
T1 sequence (P07333 20-512): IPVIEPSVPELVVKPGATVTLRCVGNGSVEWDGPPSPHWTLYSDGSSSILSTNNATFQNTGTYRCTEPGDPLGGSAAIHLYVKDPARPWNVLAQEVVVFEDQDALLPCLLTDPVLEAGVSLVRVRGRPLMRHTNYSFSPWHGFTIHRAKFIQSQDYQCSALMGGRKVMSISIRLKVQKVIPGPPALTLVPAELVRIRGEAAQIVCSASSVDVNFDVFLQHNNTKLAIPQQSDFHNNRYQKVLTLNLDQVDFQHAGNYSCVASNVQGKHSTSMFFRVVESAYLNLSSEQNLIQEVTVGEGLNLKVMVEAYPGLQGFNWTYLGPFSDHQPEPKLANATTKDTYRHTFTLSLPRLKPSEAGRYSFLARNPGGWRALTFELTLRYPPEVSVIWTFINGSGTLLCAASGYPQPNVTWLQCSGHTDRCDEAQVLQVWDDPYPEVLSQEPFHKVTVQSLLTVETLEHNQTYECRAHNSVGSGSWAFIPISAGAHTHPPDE
MEASUREMENT_LABEL: kon (M⁻¹ s⁻¹)
Lab book: enter the figure in M⁻¹ s⁻¹, no units written.

Example cases with answers are listed next.
BINDER | kon, M⁻¹ s⁻¹
anti-c-fms hybridoma antibody 1.64 (antibody, IgG1, V domains shown, Hybridoma IgG1 (cohort 1); also called 1.64.1; 1.64.2) VH: EVQLVESGGGLVQPGGSLRLSCAASGFTFSSYDMHWVRQATGKGLEWVSGIGTAGDTYYPGSVKGRFNISRENAKNSLYLQMNSLRAGDTAVYYCAREGSWYGFDYWGQGTLVTVSS VL: EIVLTQSPGTLSLSPGERATLSCRASQSVSSGYLAYLAWYQQKPGQAPRLLIYGASSTATGIPDRFSGSGSGTDFTLTISRLEPEDFAVYYCQQYGSSPITFGQGTRLEIK | 255000
anti-c-fms hybridoma antibody 1.134 (antibody, IgG1, V domains shown, Hybridoma IgG1 (cohort 1); also called 1.134.1) VH: QVQLVESGGGVVQPGRSLRLSCAASGFTFSSYGMHWVRQAPGKGLEWVAVIWYDGSNKYYADSVKGRFTISRDNSKNTLYLQMNSLRAEDTAVYYCASSSWSYYGMDVWGQGTTVTVSS VL: DIQMTQSPSSLSASVGDRVTITCQASQDINNYLNWYQQKPGKAPKLLIYDASNLEIGVPSRFSGSGSGTDFIFTISSLQPEDIATYYCQQYDNFPFTFGGGTKVEIK | 153000
anti-c-fms hybridoma antibody 1.13 (antibody, V domains shown, Hybridoma IgG1 (cohort 1)) VH: QVQLQESGPGLVKPSETLSLTCTVSGGSVSSGGYYWSWIRQPPGKGLEWIGYIYYSGSTNYNPSLKSRVTISVDTSKNQFSLKLSSVTAADTAVYYCAAGIAATGTLFDCWGQGTLVTVSS VL: DIQMTQSPSSLSASVGDRVTITCQASQDISNYLNWYQQKPGKAPKLLIYDASNLETGVPSRFSGSGSGTDFTFIISSLQPEDIATYYCQQFDNLPPTFGGGTKVESK | 120000

Now, please, on to the next binder.
Q. Request the reported kon associated with anti-c-fms hybridoma antibody 2.360 (antibody, IgG2, V domains shown, Hybridoma IgG2 (cohort 2)) VH: QVQLVQSGAEVKKPGASVKVSCKVSGYTLTELSMHWVRQAPGKGLEWMGGFDPEDGETIYAQKFQGRVTMTEDTSTDTVYMELSSLRSEDTAVYYCATGVMITFGGVIVGHSYYGMDVWGQGTTVTVSS VL: DIQMTQSPSSLSASVGDRVTITCRASQGINNYLAWYQQKPGKVPQLLIYVASTLQSGVPSRFSGSGSGTDFTLTISSLQPEDVATYYCQKYNSGPFTFGPGTKVDIK
A. 60500
